B1: LINE1-full (parent)
chain: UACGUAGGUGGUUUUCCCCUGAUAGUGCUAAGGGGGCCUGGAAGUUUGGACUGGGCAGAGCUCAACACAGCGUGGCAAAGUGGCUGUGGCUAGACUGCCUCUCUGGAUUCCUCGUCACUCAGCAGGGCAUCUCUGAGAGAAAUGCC

Variants of: B1
Experiment: self-cleavage, relative activity (ratio to wild type); higher = more cleavage; in vitro, sequencing; the parent is a self-cleaving ribozyme
readout.type: self-cleavage
The response must contain the number and no unit.

Quick note, self-cleavage for U46A A107G landed at 1.43

Item: G35U G40A | self-cleavage: 0.85

// field: self-cleavage; key: C76U C95U ; value = 0.41

The value of self-cleavage measured for the variant A43U A69G turned out to be 0.59

For U9C U104C the variant record lists self-cleavage as 1.82

Documented self-cleavage of U39G U96C : 0.11

The recorded self-cleavage for G25A A142G is 1.35

Query A59G A117G yields self-cleavage of 0.18
